biological target: Receptor tyrosine-protein kinase erbB-2 (Homo sapiens); test: Her2 expression decrease, cell viability multiplex – SKBR3 breast tumor cells, AlphaScreen, ATP viability, primary screen (AID 461); settings: 18-24 h, at 10 µM, stronger effect = lower value;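 further: lower value means less Her2 protein in the cells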
MEASURED ATTRIBUTE: Her2 level (%)
Just the number please, in %, no unit attached.

Illustrative cases are given below, each with its answer.
compound=O=C(Nc1ccc2c(c1)OCO2)c1ccc(CN2CCOCC2)cc1 data_value=88
compound=CCOC(=O)c1sc2nc(NC(=O)C3CCCCC3)sc2c1C data_value=92.5
compound="Nc1nc2n(n1)C(c1c(F)cccc1Cl)CC(c1ccc(F)cc1)N2 (centres undefined)" data_value=91.5

Okay, now this compound:
IN: For CN1CCN(C(=O)c2ccc(CS(=O)(=O)c3c(Cl)cccc3Cl)o2)CC1 , what is its reported Her2 level?
OUT: 88.5

====

experiment: viability of HCT116 without oncogenic beta-catenin – human colon tumor cells, pilot screen (AID 823); conditions: HCT116 beta-catenin knockout viability, CellTiter-Glo, 60 h; at 10 µM; stronger effect = lower value;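 further: 0% = wells killed by 20 µM Hyamine and 100% = untreated DMSO cell wells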
Results filed as inconclusive are left out.
MEASURED ATTRIBUTE: viability (%)
Just the number please, in %, no unit attached.

compound=Cc1ccc2oc(=O)c3cnn(CC(=O)N4CCCc5ccccc54)c3c2c1 data_value=91.3
compound="CC1=C(C(=O)OC2CCCCC2)C(c2ccco2)C2=C(CC(C)(C)CC2=O)N1 (stereo not given)" data_value=64.8
compound=COc1cccc(NC(=O)c2nc3nc(C)cc(C(F)F)n3n2)c1 data_value=107
compound="Cn1cc(C2NC(=O)c3c(sc4c3CCCC4)N2)c2ccccc21 (stereo not given)" data_value=101
compound="Cc1ccnc(NC2c3ccccc3C(=O)N2Cc2ccccc2Cl)c1 (stereo not given)" data_value=73

IN: For COc1cccc(C(=O)Nc2cc(C)c3c(=O)oc4ccccc4c3n2)c1 , what is its reported viability?
OUT: 85.2

IN: Thanks! And CCCCn1c(NCc2ccccc2O)nc2ccccc21 ?
OUT: 79.7

IN: Thanks! And CSc1ccc(CN2CCC(O)CC2)cc1 ?
OUT: 102

IN: Thanks! And CCN(CCNC(=O)C1CCN(S(=O)(=O)c2cccc3cccnc23)CC1)c1ccccc1 ?
OUT: 94.4

IN: Thanks! And CCN1CCN(Cc2nc3c(c(=O)n(C)c(=O)n3C)n2CC(=O)c2ccccc2)CC1 ?
OUT: 100

IN: Thanks! And CC(=O)C1=C(C)NC(SCC(=O)c2ccc(C)cc2)=C(C#N)C1c1ccco1 (stereo not given) ?
OUT: 49.2

IN: Thanks! And CNC(=O)CN(c1ccc(C(C)C)cc1)S(C)(=O)=O ?
OUT: 95

IN: Thanks! And CCN(C(=O)c1cc(Cl)ccc1OC)c1ccccc1 ?
OUT: 89.5

IN: Thanks! And O=C(Cn1c(=O)oc2cc(S(=O)(=O)N3CCCCCC3)ccc21)NC1CCCCC1 ?
OUT: 101

IN: Thanks! And Cc1nc2sc(C(c3cccs3)N3CC(C)CC(C)C3)c(O)n2n1 (stereo not given) ?
OUT: 107

IN: Thanks! And CCOc1ccc(N(CC(=O)OC)S(=O)(=O)c2ccc(OC)c(OC)c2)cc1 ?
OUT: 99.9

IN: Thanks! And CCCCn1c(CNC(=O)CCC)nc2ccccc21 ?
OUT: 104

IN: Thanks! And O=C(Cn1cc2c(n1)CCCC2)NC1CCN(Cc2ccccc2)CC1 ?
OUT: 87

IN: Thanks! And Cn1c(NC(=O)C2CCCC2)cc(=O)n(C)c1=O ?
OUT: 105

IN: Thanks! And Cc1c(NC(=O)c2ccc(CN3CCc4ccccc4C3)cc2)c(=O)n(-c2ccccc2)n1C ?
OUT: 79.6

IN: Thanks! And COc1ccc(NC(=O)CN(c2ccc(C(C)C)cc2)S(=O)(=O)c2c(C)noc2C)cc1OC ?
OUT: 94.5

====

test: S. cerevisiae growth inhibition in restrictive medium, OD615, pilot screen, restrictive growth control, yeast lifespan reduction project (AID 706); details: OD615, 48 h, at 10 µM, stronger effect = higher value;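 further: modified DeaD lifespan yeast strain shifted to restrictive glucose medium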
// values below are reported growth inhibition
Just the number please, in %, no unit attached.

Illustrative cases are given below, each with its answer.
molecule=CCOC(=O)c1c(C)c(C(=O)O)n(C)c1C data_value=-19.7
molecule=CCOC(=O)Cn1c(=O)oc2cc(S(=O)(=O)N3CCCc4ccccc43)ccc21 data_value=-5.77
molecule=CCn1c(=O)cc(OCC(=O)N2CCc3ccccc32)c2ccccc21 data_value=-15.4
molecule=O=C(c1cc2ccccn2n1)N1CCN(Cc2ccccc2)CC1 data_value=7.58
molecule=COc1ccc(N2CCN(C(=O)c3ccc4nc(N5CCCCC5)sc4c3)CC2)cc1 data_value=6.32

IN: For CSc1ccc(Cl)c(C(=O)NCc2ccco2)c1 , what is its reported growth inhibition?
OUT: 8.44

IN: Thanks! And COc1ccc(C2CC(c3ccc(OC)cc3)n3nc(N)nc3N2)cc1 (stereo unspecified) ?
OUT: 16.3

IN: Thanks! And COc1ccccc1OCC(=O)N(Cc1nc(-c2ccc(Cl)cc2)no1)C(C)C ?
OUT: -10.6

IN: Thanks! And COC(=O)c1ccc(-c2nc(-c3ccc(Br)o3)no2)cc1 ?
OUT: -20.4

IN: Thanks! And CCCc1cc(C(=O)Nc2sc(C)c(C)c2C(=O)OCC)no1 ?
OUT: 2.83

IN: Thanks! And Cc1cc(C)cc(N(CC(=O)Nc2cccc(C)n2)S(=O)(=O)c2c(C)noc2C)c1 ?
OUT: -11.5

IN: Thanks! And CCc1cccc(C)c1NC(=O)CN1C(=O)c2ccccc2S1(=O)=O ?
OUT: 1.46

IN: Thanks! And Cn1c(SCC(=O)Nc2ccc(F)cc2)nnc1-c1cccnc1 ?
OUT: 0.86

IN: Thanks! And CC1CN(c2c3c(nc4ncnn24)CCCC3)CC(C)O1 (stereo unspecified) ?
OUT: -4.12

IN: Thanks! And CNC(=O)c1ccsc1NC(=O)c1ccccc1 ?
OUT: 14.5

IN: Thanks! And COCCCNC(=O)c1oc2ccc(S(=O)(=O)N(C)C3CCCCC3)cc2c1C ?
OUT: 5.4

====

// values below are reported growth inhibition
assay: S. cerevisiae growth inhibition in permissive medium (OD615), pilot counter-assay for S. cerevisiae lifespan shortening project, permissive growth control (AID 705); conditions: OD615, 24 h, at 10 µM, stronger effect = higher value
Just the number please, in %, no unit attached.

compound="CC(Sc1n[nH]c(=O)[nH]c1=O)C(=O)OCc1ccccc1 (centres undefined)" measured_attribute="growth inhibition" data_value=-21.9
compound=COc1nc(Oc2ccc(=O)n(C)n2)nc(N(C)C)n1 measured_attribute="growth inhibition" data_value=-3.33
compound="CCOC(=O)N1CCC(N2C(=O)c3ccccc3C2Nc2cc(OC)c(OC)c(OC)c2)CC1 (centres undefined)" measured_attribute="growth inhibition" data_value=6.9
compound=CCOCCn1c(SCc2ccc(F)cc2)nc2c1c(=O)[nH]c(=O)n2C measured_attribute="growth inhibition" data_value=-4.31
compound=CCOC(=O)N1CCN(Cc2nc3c(c(=O)n(C)c(=O)n3C)n2Cc2ccc(F)cc2)CC1 measured_attribute="growth inhibition" data_value=-5.48

Okay, now this compound:
IN: For CC(C)CCn1c(NCCc2ccccc2)nc2c1c(=O)n(C)c(=O)n2C , what is its reported growth inhibition?
OUT: -0.96

====

// values below are reported differential viability (reversal)
test: MRP1 drug-resistance reversers in H69AR cells – cell-based, doxorubicin co-treatment, pilot screen (AID 601); conditions: H69AR cells + 2 uM doxorubicin, CellTiter-Glo, 72 h; at 10 µM; stronger effect = higher value
The source made the active and inactive calls.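 Rule for the calls: active = viability loss from added drug above about 55%, and viability with drug at most 40%, in both replicates (limit read from the data, passing the limit was not always enough); inconclusive = both conditions met in only one replicate; inactive = neither replicate meets both conditions.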

Illustrative cases are given below, each with its answer.
compound=COCc1nnc(NC(=O)c2ccc(S(=O)(=O)N(C)c3ccccc3)cc2)o1 data_value="-18.5% (inactive)"
compound=Cc1c(-n2c(CN3C(=O)c4ccccc4C3=O)nc3ccccc3c2=O)c(=O)n(-c2ccccc2)n1C data_value="3.82% (inactive)"
compound="CC1CN(c2ccc(Oc3ccccc3)cc2)c2nc3c(c(=O)n(CC(N)=O)c(=O)n3C)n2C1 (stereo not given)" data_value="4.74% (inactive)"
compound=CCN(CC)C(=O)c1ccc(CS(=O)(=O)c2ccc(OC)cc2)o1 data_value="-0.895% (inactive)"

IN: For C=CCn1c(SC(C)C(=O)NC2(C#N)CCCCC2)nnc1-c1ccc(OC)cc1 (stereo not given) , what is its reported differential viability (reversal)?
OUT: 13.9% (inactive)

====

assay: HUVEC growth inhibition – cell-based, human, primary screen (AID 575); conditions: HUVEC proliferation, CellTiter-Glo luminescence, 72 h; at 10 µM; stronger effect = lower value;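 further: 100% = median of untreated cell wells with 0.1% DMSO on each plate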
MEASURED ATTRIBUTE: viability (%)
Just the number please, in %, no unit attached.

compound="COc1cccc(C2=NOC(C(=O)N3CCc4ccccc4C3)C2)c1 (configuration not stated)" data_value=92.2
compound=Cc1ccc(-c2cc3nc4c(c(=O)n3[nH]2)CCCC4)cc1 data_value=88.7
compound="C/C=C/COC(=O)c1[nH]c2c(c1C)C(=O)CC(c1ccc(N(C)C)cc1)C2 (configuration not stated)" data_value=62.4

Okay, now this compound:
IN: For CCCc1cc(C(=O)Nc2ccc(C(C)=O)cc2)no1 , what is its reported viability?
OUT: 77.7
